study.system: rat spinal cord membrane receptor
assay.info: [125I]D-Tyr-NPFF radioligand binding, rat spinal cord membranes
condition.label: competition of [125I]D-Tyr-NPFF binding; * = differs from NPFF1
measured.metric: pKi for rat spinal cord membrane receptor binding, MEAN

For H-PDVDHVFLRF-NH2 [SchistFLRF] the substance record lists pKi for rat spinal cord membrane receptor binding, MEAN as 6.39

###

In this section, each of the molecules is paired with its reported Ki.
study.system: rat NPFF1 receptor (Rattus norvegicus, UniProt Q9EP86)
Sequence (Q9EP86 whole entry): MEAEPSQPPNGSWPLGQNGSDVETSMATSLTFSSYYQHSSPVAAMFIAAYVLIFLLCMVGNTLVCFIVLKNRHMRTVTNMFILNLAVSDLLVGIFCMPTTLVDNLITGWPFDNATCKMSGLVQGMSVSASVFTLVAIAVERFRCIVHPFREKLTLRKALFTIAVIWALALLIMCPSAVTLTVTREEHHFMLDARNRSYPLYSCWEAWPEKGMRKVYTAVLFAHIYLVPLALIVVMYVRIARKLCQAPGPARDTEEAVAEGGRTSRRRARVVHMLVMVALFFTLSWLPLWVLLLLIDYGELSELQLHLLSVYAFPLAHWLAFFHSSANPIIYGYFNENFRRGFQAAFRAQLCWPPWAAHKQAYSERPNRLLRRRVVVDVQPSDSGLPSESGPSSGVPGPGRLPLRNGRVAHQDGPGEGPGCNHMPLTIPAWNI
assay.info: [125I]D-Tyr-NPFF radioligand binding, membranes of COS-7 cells transiently expressing cloned rat NPFF1
Set-up: expressed in transfected cells; host or cells: COS-7 (transient)
condition.label: competition of [125I]D-Tyr-NPFF binding; COS-7 membranes; read-out: pKi for cloned rat NPFF1 receptor binding in COS-7 cells, MEAN (converted)

CCNC(C)Cc1cccc(C(F)(F)F)c1 (stereo not shown) [fenfluramine] ... ≥ 10 µM
C[C@@H]1CN([C@H]2CC[C@](C#N)(c3ccc(F)cc3)CC2)CC[C@]1(C(=O)O)c1ccccc1 [levocabastine] ... ≥ 10 µM
NCCc1ccc(O)c(O)c1 [dopamine] ... ≥ 10 µM
N=C(N)NCCC[C@H](N)C(=O)O [L-arginine] ... ≥ 10 µM
CNCCCN1c2ccccc2CCc2ccccc21 [desipramine] ... ≥ 10 µM
N=C(N)NCCC[C@@H](N)C(=O)O [D-arginine] ... ≥ 10 µM

Could you now look at the following molecule, please?
For Cc1nc2sccn2c(=O)c1CCN1CCC(=C(c2ccc(F)cc2)c2ccc(F)cc2)CC1 [ritanserine] the molecule record lists Ki as ≥ 10 µM

###

study.system: rat NPFF2 receptor (Rattus norvegicus, UniProt Q9EQD2)
Construct: The full-length rat NPFF2 clone was amplified from rat spinal cord cDNA
Sequence (Q9EQD2 whole entry): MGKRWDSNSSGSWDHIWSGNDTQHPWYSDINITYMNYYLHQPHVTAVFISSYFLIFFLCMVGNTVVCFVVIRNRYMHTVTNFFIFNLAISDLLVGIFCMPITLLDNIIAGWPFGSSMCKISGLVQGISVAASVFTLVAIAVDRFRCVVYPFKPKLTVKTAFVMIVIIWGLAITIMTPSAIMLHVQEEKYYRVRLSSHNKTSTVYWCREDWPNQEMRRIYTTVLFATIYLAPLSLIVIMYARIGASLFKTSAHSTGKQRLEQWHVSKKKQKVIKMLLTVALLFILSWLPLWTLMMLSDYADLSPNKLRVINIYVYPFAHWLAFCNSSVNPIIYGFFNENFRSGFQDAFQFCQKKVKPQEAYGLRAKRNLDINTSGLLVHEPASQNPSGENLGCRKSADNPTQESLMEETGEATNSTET
assay.info: Functional activity at cloned rat NPFF2 in COS-7 cells
measured.metric: pEC50
Keep in mind that pEC50 stands for -log10 of concentration in molar terms.

NC(N)=NCCC[C@@H](NC(=O)C(c1ccccc1)c1ccccc1)C(=O)NCc1ccc(O)cc1 ... 6.03

Could you now look at the following compound, please?
For `NC(N)=NCCC[C@H](NC(=O)C(c1ccccc1)c1ccccc1)C(=O)NCc1ccc(O)cc1` the compound record lists pEC50 as 5.27

###

study.system: rat spinal cord membrane receptor
assay.info: [125I]D-Tyr-NPFF radioligand binding, rat spinal cord membranes
condition.label: competition of [125I]D-Tyr-NPFF binding; * = differs from NPFF1
Text: The binding profile of rat NPFF1 was compared to that of rat spinal cord membranes. […] (See * Table 2).
Non-standard residues stand in square brackets, D forms with d. Residues, ends and D or L forms follow the SMILES beside them. NMeF = CN[C@@H](Cc1ccccc1)C(=O)O
measured.metric: pKi for rat spinal cord membrane receptor binding, MEAN
Write the number on its own, no unit after it.

CSCC[C@H](NC(=O)[C@@H]1CCCN1)C(=O)N[C@@H](CCCNC(=N)N)C(=O)N[C@@H](Cc1ccccc1)C(N)=O [PMRFa] (H-PMRF-NH2; N-terminus assumed) ... 9.37
CC(C)C[C@@H](NC(=O)[C@H](N)Cc1ccc(O)cc1)C(=O)N(C)[C@@H](Cc1ccccc1)C(=O)N[C@@H](CCC(N)=O)C(=O)N1CCC[C@H]1C(=O)N[C@@H](CCC(N)=O)C(=O)N[C@@H](CCCNC(=N)N)C(=O)N[C@@H](Cc1ccccc1)C(N)=O [(2DME)Y8Fa] (H-[dY][dL][NMeF]QPQRF-NH2; N-terminus assumed) ... 9.57
C[C@@H](O)[C@H](NC(=O)[C@@H](N)Cc1ccccc1)C(=O)N[C@@H](CCCNC(=N)N)C(=O)N[C@@H](Cc1ccccc1)C(N)=O [FTRF] (H-FTRF-NH2; N-terminus and C-terminus assumed) ... 8.16

For N=C(N)NCCC[C@H](NC(=O)[C@H](Cc1ccccc1)NC(=O)[C@@H](N)Cc1ccccc1)C(=O)N[C@@H](Cc1ccccc1)C(N)=O [FFRF] (H-FFRF-NH2; N-terminus and C-terminus assumed) the compound record lists pKi for rat spinal cord membrane receptor binding, MEAN as 8.98

###

study.system: UniProt:Q9EP86
assay.info: [125I]D-Tyr-NPFF radioligand binding, membranes of COS-7 cells transiently expressing cloned rat NPFF1
Parameters: expressed in transfected cells; host or cells: COS-7 (transient)
condition.label: competition of [125I]D-Tyr-NPFF binding; COS-7 membranes
Non-standard residues stand in square brackets, D forms with d. Residues, ends and D or L forms follow the SMILES beside them. *: point of attachment. NMeF = CN[C@@H](Cc1ccccc1)C(=O)O; X1 = O=C(Cc1ccc(O)cc1)*
Lab note: anything with pKi for cloned rat NPFF1 receptor binding in COS-7 cells, MEAN at or over 8 counts as yes; the rest go in no.

CSCC[C@H](NC(=O)[C@H](Cc1ccc(OS(=O)(=O)O)cc1)NC(=O)[C@@H](N)CC(=O)O)C(=O)NCC(=O)N[C@@H](Cc1c[nH]c2ccccc12)C(=O)N[C@@H](CCSC)C(=O)N[C@@H](CC(=O)O)C(=O)N[C@@H](Cc1ccccc1)C(N)=O ... no
CC(C)C[C@@H](NC(=O)[C@H](N)Cc1ccc(O)cc1)C(=O)N[C@@H](Cc1ccccc1)C(=O)N[C@@H](CCC(N)=O)C(=O)N1CCC[C@H]1C(=O)N[C@@H](CCC(N)=O)C(=O)N[C@@H](CCCNC(=N)N)C(=O)N[C@@H](Cc1ccccc1)C(N)=O [(2D)Y8Fa] (H-[dY][dL]FQPQRF-NH2; N-terminus assumed) ... yes
CC(C)C[C@@H](NC(=O)[C@H](N)Cc1ccc(O)cc1)C(=O)N(C)[C@@H](Cc1ccccc1)C(=O)N[C@@H](CCC(N)=O)C(=O)N1CCC[C@H]1C(=O)N[C@@H](CCC(N)=O)C(=O)N[C@@H](CCCNC(=N)N)C(=O)N[C@@H](Cc1ccccc1)C(N)=O [(2DME)Y8Fa] (H-[dY][dL][NMeF]QPQRF-NH2; N-terminus assumed) ... yes

Next compound, please.
I'd appreciate it if you could say whether CC(C)C[C@H](NC(=O)[C@H](Cc1ccccc1)NC(=O)Cc1ccc(O)cc1)C(=O)N[C@@H](Cc1ccccc1)C(=O)N[C@@H](CCC(N)=O)C(=O)N1CCC[C@H]1C(=O)N[C@@H](CCC(N)=O)C(=O)N[C@@H](CCCNC(=N)N)C(N)=O [desamino-nor-Y8Ra] (X1-FLFQPQR-NH2) has pKi for cloned rat NPFF1 receptor binding in COS-7 cells, MEAN at least equal to 8.
no

###

In this section, each of the compounds is paired with its reported pKi for rat spinal cord membrane receptor binding, MEAN.
study.system: rat spinal cord membrane receptor
assay.info: [125I]D-Tyr-NPFF radioligand binding, rat spinal cord membranes
condition.label: competition of [125I]D-Tyr-NPFF binding; * = differs from NPFF1
Non-standard residues stand in square brackets, D forms with d. Residues, ends and D or L forms follow the SMILES beside them. *: point of attachment. X1 = O=C(Cc1ccc(O)cc1)*
Write the number on its own, no unit after it.

CC(C)C[C@H](NC(=O)[C@H](Cc1ccccc1)NC(=O)Cc1ccc(O)cc1)C(=O)N[C@@H](Cc1ccccc1)C(=O)N[C@@H](CCC(N)=O)C(=O)N1CCC[C@H]1C(=O)N[C@@H](CCC(N)=O)C(=O)N[C@@H](CCCNC(=N)N)C(N)=O [desamino-nor-Y8Ra] (X1-FLFQPQR-NH2) ... 7.51

For CC(C)C[C@@H](NC(=O)[C@H](N)Cc1ccc(O)cc1)C(=O)N[C@H](Cc1ccccc1)C(=O)N[C@@H](CCC(N)=O)C(=O)N1CCC[C@H]1C(=O)N[C@@H](CCC(N)=O)C(=O)N[C@@H](CCCNC(=N)N)C(=O)N[C@@H](Cc1ccccc1)C(N)=O [(3D)Y8Fa] (H-[dY][dL][dF]QPQRF-NH2; N-terminus assumed) the compound record lists pKi for rat spinal cord membrane receptor binding, MEAN as 9.123
